Entries and their % residual binding
SYSTEM_UNDER_TEST: T1, biotinylated CD32bECDHis (human, UniProt P31994 43-223, limits assumed, biotinylated (sites not given))
T1 sequence (looked up): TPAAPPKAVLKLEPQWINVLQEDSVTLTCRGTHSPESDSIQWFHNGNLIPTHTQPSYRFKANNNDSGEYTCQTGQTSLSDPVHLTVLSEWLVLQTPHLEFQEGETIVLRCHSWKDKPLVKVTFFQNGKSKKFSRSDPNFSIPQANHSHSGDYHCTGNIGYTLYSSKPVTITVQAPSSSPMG
ASSAY_REMARKS: competition ELISA, competitor 022
Report the value in % with no unit label.

Answered examples (3):
[[record]]
binder = "Antibody 028 (antibody, V domains shown, List 1 gives no VL for antibody 028; The VL is therefore uncertain; also called HuMab 028) VH: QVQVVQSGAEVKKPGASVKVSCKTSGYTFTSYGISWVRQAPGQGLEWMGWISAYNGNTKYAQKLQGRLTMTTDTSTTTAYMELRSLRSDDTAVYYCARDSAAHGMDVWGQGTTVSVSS VL: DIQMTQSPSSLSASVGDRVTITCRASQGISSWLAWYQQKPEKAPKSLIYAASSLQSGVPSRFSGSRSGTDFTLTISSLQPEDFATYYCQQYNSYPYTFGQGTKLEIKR"
experimental_readout = "% residual binding"
assay_value = 6

[[record]]
binder = "Antibody 020 (antibody, V domains shown, also called HuMab 020) VH: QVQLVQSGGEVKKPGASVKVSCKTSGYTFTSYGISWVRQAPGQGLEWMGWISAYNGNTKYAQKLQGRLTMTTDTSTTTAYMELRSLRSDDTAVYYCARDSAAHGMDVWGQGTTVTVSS VL: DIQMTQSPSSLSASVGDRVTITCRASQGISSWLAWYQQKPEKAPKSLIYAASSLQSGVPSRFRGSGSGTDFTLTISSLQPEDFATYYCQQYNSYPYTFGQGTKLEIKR"
experimental_readout = "% residual binding"
assay_value = 6

[[record]]
binder = "Antibody 026 (antibody, V domains shown, Human antibody; also called HuMab 026) VH: QVQLVQSGAEVKKPGASVKVSCKASGYTFTSYGLSWVRQAPGQGLEWMGWISAYNGNTNYAQKLQGRVTMTTDTSTSTAYMDLRSLRSDDTAVYYCARDSAAHGMDVWGQGTTVTVSS VL: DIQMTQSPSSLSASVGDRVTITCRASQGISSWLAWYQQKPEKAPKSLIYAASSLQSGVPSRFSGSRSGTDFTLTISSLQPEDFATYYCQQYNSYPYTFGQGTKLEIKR"
experimental_readout = "% residual binding"
assay_value = 1


Qu. Can you share its % residual binding? I mean this binder: Antibody 024 (antibody, V domains shown, also called HuMab 024) VH: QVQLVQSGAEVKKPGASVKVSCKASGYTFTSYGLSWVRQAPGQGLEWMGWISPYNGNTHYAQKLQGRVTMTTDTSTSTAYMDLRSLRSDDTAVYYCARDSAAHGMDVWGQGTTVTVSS VL: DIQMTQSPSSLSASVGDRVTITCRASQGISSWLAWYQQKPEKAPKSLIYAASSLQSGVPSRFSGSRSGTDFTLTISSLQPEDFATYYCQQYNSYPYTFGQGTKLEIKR
Ans. 17

Qu. Given Antibody 063 (antibody, human IgG1, V domains shown, Human antibody; also called HuMab 063) VH: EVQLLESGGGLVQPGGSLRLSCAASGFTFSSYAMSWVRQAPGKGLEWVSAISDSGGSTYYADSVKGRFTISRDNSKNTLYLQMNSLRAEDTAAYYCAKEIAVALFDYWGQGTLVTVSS VL: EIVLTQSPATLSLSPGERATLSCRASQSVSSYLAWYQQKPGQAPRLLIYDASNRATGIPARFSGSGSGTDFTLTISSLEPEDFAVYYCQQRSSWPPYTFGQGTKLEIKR , state its recorded % residual binding.
Ans. 29
